# System: human recombinant GST cleaved CSNK1D (Homo sapiens)
# Construct: GST (cleaved yes)
# Assay protocol: Purified Enzyme Assay (ADP-Glo CSNK1D Kinase Assay)
# Condition parameters: 2 nM CSNK1D; peptide substrate 150 μM; ATP 20 μM; 45 minutes at room temperature
pIC50: −log10 of the molar value.
Result type: pIC50

Recorded pIC50, per entry:
{"Compound": "Cc1cc(-c2c(-c3ccc(F)cn3)nn3c2COC(C)(C)C3)c2cn[nH]c2n1", "pIC50": 8.70}
{"Compound": "Cc1cc(-c2c(-c3ncc(F)cc3F)nn3c2CCCC3)c2cn[nH]c2n1", "pIC50": 7.96}
{"Compound": "Cc1cc(-c2c(-c3ccc(F)cn3)nn3c2CO[C@H](C)C3)c2cn[nH]c2n1 (single isomer, unassigned)", "pIC50": 7.89}
{"Compound": "COCC1(F)CCc2c(-c3cc(C)nc4[nH]ccc34)c(-c3ccc(F)cn3)nn2C1 (single isomer, unassigned) [Example 298]", "pIC50": 8.70}
{"Compound": "Cc1cc(-c2c(-c3ccc(F)cc3)nn3c2COC[C@H]3C)c2cn[nH]c2n1 (single isomer, unassigned)", "pIC50": 8.15}
{"Compound": "COCC1CCc2c(-c3cc(C)nc4[nH]ncc34)c(-c3ccc(F)cn3)nn2C1 (single isomer, unassigned) [Example 296]", "pIC50": 7.77}

[a] C[C@]1(CF)CCc2c(-c3ccnc4[nH]ncc34)c(-c3ccc(F)cn3)nn2C1 (single isomer, unassigned)
[b] Cc1nc2[nH]ncc2c(-c2c(-c3ccc(F)cn3)nn3c2CC2(C3)CC2(F)F)c1F (single isomer, unassigned) [Example 263]
[c] COCC1(F)CCc2c(-c3c(F)cnc4[nH]ncc34)c(-c3ccc(F)cn3)nn2C1 (single isomer, unassigned) [Example 302]
[d] [2H]C([2H])([2H])OC([2H])([2H])[C@]1(F)CCc2c(-c3cc(C)nc4[nH]ncc34)c(-c3ccc(F)cn3)nn2C1 (single isomer, unassigned)
Order the items by recorded pIC50; the first position goes to the largest value. A ranking is expressed here by listing the labels in the requested order. a, d, b, c

[P] Fc1ccc(-c2nn3c(c2-c2ccnc4[nH]ncc24)CC[C@H]2C[C@H]23)cc1 (stereo in doubt)
[Q] Cc1nc(-c2nn3c(c2-c2ccnc4[nH]ncc24)COC(C)(C)C3)ccc1Cl
Hi, I'm comparing P with Q and wondering which one has the bigger number for pIC50. Any idea? Kindly state the label of the option you pick. P

###

# System: human recombinant GST cleaved CSNK1D (Homo sapiens, UniProt P48730)
# Construct: GST (cleaved yes)
# Assay protocol: Purified Enzyme Assay (ADP-Glo CSNK1D Kinase Assay)
# Condition parameters: 2 nM CSNK1D; peptide substrate 150 μM; ATP 20 μM; 45 minutes at room temperature
Result type: IC50 (nM)

Recorded IC50, per entry:
{"Molecule": "Cc1nc2[nH]ncc2c(-c2c(-c3ccc(F)cn3)nn3c2CC[C@@]2(C3)CC2(F)F)c1F (single isomer, unassigned)", "IC50, nM": 18}
{"Molecule": "CCn1ncc2cc(-c3c(-c4ccc(F)cn4)nn4c3COC(C)(C)C4)cnc21", "IC50, nM": 344}
{"Molecule": "Fc1ccc(-c2nn3c(c2-c2ccnc4[nH]ncc24)OCCC3)cc1", "IC50, nM": 2}
{"Molecule": "CC1(CF)CCc2c(-c3c(F)cnc4[nH]ncc34)c(-c3ccc(F)cn3)nn2C1 (single isomer, unassigned)", "IC50, nM": 2}
{"Molecule": "C[C@@]1(C(F)(F)F)Cn2nc(-c3ccc(F)cn3)c(-c3ccnc4[nH]ncc34)c2CO1 (single isomer, unassigned)", "IC50, nM": 3}

[A] C[C@@H]1C[C@@H](C)n2nc(-c3ccc(F)cn3)c(-c3ccnc4[nH]ncc34)c2O1 (single isomer, unassigned)
[B] CC1(CF)CCc2c(-c3ccnc(N)c3)c(-c3ccc(F)cn3)nn2C1 (single isomer, unassigned) [Example 286]
[C] C[C@@H]1[C@@H](C)OCc2c(-c3ccnc4[nH]ncc34)c(-c3ccc(F)cn3)nn21 (stereo in doubt)
Order the items by recorded IC50; the first position goes to the largest value. A ranking is expressed here by listing the labels in the requested order. C, A, B

[1] Cc1cc(-c2c(-c3ccc(F)cc3)nn3c2OCC2(COC2)C3)c2cn[nH]c2n1
[2] COC[C@]1(F)CCc2c(-c3cc(C)nc4[nH]ncc34)c(-c3ccc(F)cn3)nn2C1 (single isomer, unassigned) [Example 304]
[3] Fc1ccc(-c2nn3c(c2-c2ccnc4[nH]ncc24)CCC(F)(COC(F)(F)F)C3)nc1 (single isomer, unassigned) [Example 316]
[4] O=C1OCCn2nc(-c3ccc(F)cn3)c(-c3ccnc4[nH]ncc34)c21
Please list these in order of increasing IC50. Thank you! A ranking is expressed here by listing the labels in the requested order. 1, 2, 3, 4

[1] CC(=O)Nc1cc(-c2c(-c3ccc(F)cn3)nn3c2CC[C@@H]2C[C@@H]23)ccn1 (stereo in doubt)
[2] Fc1ccc(-c2nn3c(c2-c2ccnc4[nH]ncc24)CC[C@@H]2[C@H]3C2(F)F)cc1 (stereo in doubt)
[3] [2H]C([2H])([2H])C1(C([2H])([2H])[2H])Cn2nc(-c3ccc(F)cn3)c(-c3c(F)c(C)nc4[nH]nc(Cl)c34)c2CO1
[4] FCC1Cn2nc(-c3ccc(F)cc3)c(-c3ccnc4[nH]ncc34)c2CO1 (single isomer, unassigned) [Example 105]
Order the items by recorded IC50; the first position goes to the largest value. A ranking is expressed here by listing the labels in the requested order. 3, 4, 1, 2

[A] Nc1cc(-c2c(-c3ccc(F)cc3)nn3c2C[C@H](F)C3)ccn1
[B] [2H]C([2H])([2H])C1(C([2H])([2H])[2H])CC(O)c2c(-c3ccnc4[nH]ncc34)c(-c3ccc(F)cn3)nn2C1 (stereo not shown)
Kindly compare A with B and tell me which has the lower IC50 figure. Kindly state the label of the option you pick. A
(A: 1 nM, B: 14 nM)

###

# System: human recombinant GST cleaved CSNK1D (Homo sapiens, UniProt P48730)
# Construct: GST (cleaved yes)
# Assay protocol: Purified Enzyme Assay (ADP-Glo CSNK1D Kinase Assay)
# Condition parameters: 2 nM CSNK1D; peptide substrate 150 μM; ATP 20 μM; 45 minutes at room temperature
Result type: IC50 (nM)

[P] CC1(C)Cn2nc(-c3ccncc3Cl)c(-c3ccnc4[nH]ncc34)c2CO1
[Q] Cn1cc2c(-c3c(-c4ccc(F)cn4)nn4c3COC(C)(C)C4)ccnc2n1
[R] CC1COc2c(-c3ccn4nccc4c3)c(-c3ccc(F)cn3)nn2C1 (stereo not shown)
[S] C[C@H]1CCCc2c(-c3ccnc4[nH]ncc34)c(-c3ccc(F)cc3)nn21 (single isomer, unassigned)
Order each entry by recorded IC50, climbing from the minimum. A ranking is expressed here by listing the labels in the requested order. S, R, P, Q

###

# System: human recombinant GST cleaved CSNK1D (Homo sapiens, UniProt P48730)
# Construct: GST (cleaved yes)
# Assay protocol: Purified Enzyme Assay (ADP-Glo CSNK1D Kinase Assay)
# Condition parameters: 2 nM CSNK1D; peptide substrate 150 μM; ATP 20 μM; 45 minutes at room temperature
Result type: IC50 (nM)

Recorded IC50, per entry:
{"Molecule": "Fc1ccc(-c2nn3c(c2-c2ccncc2)OCCC3)cc1", "Result type": "IC50", "Test result": 12}
{"Molecule": "Fc1ccc(-c2nn3c(c2-c2ccnc4[nH]ncc24)COCC3)cc1", "Result type": "IC50", "Test result": 2}

[A] CC1(CF)CCc2c(-c3ccnc(N)c3)c(-c3ccc(F)cn3)nn2C1 (single isomer, unassigned) [Example 287]
[B] Cc1nc2[nH]ncc2c(-c2c(-c3ccc(F)cn3)nn3c2CCC3)c1F
Hi, I'm comparing A with B and wondering which one has the bigger number for IC50. Any idea? Kindly state the label of the option you pick. B

###

# System: human CSNK1D (Homo sapiens)
# Sequence (P48730 whole entry): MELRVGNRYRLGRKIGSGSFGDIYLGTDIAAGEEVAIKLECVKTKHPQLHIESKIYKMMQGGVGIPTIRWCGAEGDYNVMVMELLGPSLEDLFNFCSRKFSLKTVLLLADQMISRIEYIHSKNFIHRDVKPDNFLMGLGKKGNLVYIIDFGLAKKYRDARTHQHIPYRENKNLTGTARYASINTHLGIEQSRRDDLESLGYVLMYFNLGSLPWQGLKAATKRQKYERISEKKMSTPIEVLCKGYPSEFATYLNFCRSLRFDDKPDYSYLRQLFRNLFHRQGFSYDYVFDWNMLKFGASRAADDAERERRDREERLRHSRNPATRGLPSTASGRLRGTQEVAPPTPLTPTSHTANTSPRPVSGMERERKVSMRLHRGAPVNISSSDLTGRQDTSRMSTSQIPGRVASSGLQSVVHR
# Assay protocol: Whole Cell nBRET CSNK1D Binding Assay
# Condition parameters: living CHO cells stably expressing human CSNK1D tagged with nanoluciferase; NanoBret tracer 130 nM; 2 hours at 37 C
pIC50: −log10 of the molar value.
Result type: pIC50

{"Compound": "CC1(C)Cn2nc(-c3ccc(Cl)cn3)c(-c3ccnc4[nH]ncc34)c2CO1 [Example 146]", "Test result": 6.44}

[P] Cc1cc(-c2c(-c3ccc(F)cn3)nn3c2C[C@H]2C[C@H]23)c2cn[nH]c2n1 [Example 27]
[Q] C[C@@H]1n2nc(-c3ccc(F)cn3)c(-c3ccnc4[nH]nc(Cl)c34)c2COC1(C)C (single isomer, unassigned) [Example 437]
[R] COCC1(F)CCc2c(-c3c(F)cnc4[nH]ncc34)c(-c3ccc(F)cn3)nn2C1 (single isomer, unassigned) [Example 303]
Please list these in order of increasing pIC50. Thank you! A ranking is expressed here by listing the labels in the requested order. P, R, Q
(P: 6.36, R: 6.74, Q: 7.34)
